tested on: phospho-AKT at S473 in KPL4 breast tumour cell line; assay: Cellular p-AKT1/2/3-S473 assay; assay type: cell-based; conditions: KPL4 cells, 2 hours treatment; median; read-out: pAKT-S743 median IC50
Where a name gives a salt, the structure may show the parent alone.
endpointLabel: IC50 (nM)

Cc1nc2cc(-c3ccccc3)c(-c3ccc(C4(N)CCC4)cc3)nn2c1-c1cccc(C(N)=O)c1 : 10000
NC(=O)c1cccc(-c2cnc3cc(-c4ccccc4)c(-c4ccc(C5(N)CCC5)cc4)nn23)c1 [Example 4-11, hydrochloride] : 20
COC(=O)/C=C/c1c(C)nc2cc(-c3ccccc3)c(-c3ccc(C4(N)CCC4)cc3)nn12 : 10000
COC(=O)c1ccc(-c2cnc3cc(-c4ccccc4)c(-c4ccc(C5(N)CCC5)cc4)nn23)cn1 : 920
Cc1nc2cc(-c3ccccc3)c(-c3ccc(C4(N)CCC4)cc3)nn2c1-c1ccc(C(N)=O)cc1 : 10000
NC1(c2ccc(-c3nn4c(-c5ccc(O)nc5)cnc4cc3-c3ccccc3)cc2)CCC1 : 160
Cc1nc2cc(-c3ccccc3)c(-c3ccc(C4(N)CCC4)cc3)nn2c1-c1ccc(F)c(CO)c1 : 10000
Cc1nc2cc(-c3ccccc3)c(-c3ccc(C4(N)CCC4)cc3)nn2c1-c1ccc(F)cc1 : 9170
C=Cc1c(C)nc2cc(-c3ccccc3)c(-c3ccc(C4(N)CCC4)cc3)nn12 : 10000
NC1(c2ccc(-c3nn4c(-c5cn[nH]c5)cnc4cc3-c3ccccc3)cc2)CCC1 : 10
CCOC(=O)c1cncc(-c2cnc3cc(-c4ccccc4)c(-c4ccc(C5(N)CCC5)cc4)nn23)c1 : 60
Cc1cc(-c2c(C)nc3cc(-c4ccccc4)c(-c4ccc(C5(N)CCC5)cc4)nn23)[nH]n1 : 10000
Cc1cn2nc(-c3ccc(C4(N)CCC4)cc3)c(-c3ccccc3)cc2n1 [Example 1-1, hydrochloride] : 10000
NC1(c2ccc(-c3nn4c(-c5ccc(S(N)(=O)=O)cc5)cnc4cc3-c3ccccc3)cc2)CCC1 : 160
NC1(c2ccc(-c3nn4c(-c5ccc(F)cc5)c(Br)nc4cc3-c3ccccc3)cc2)CCC1 : 410
NC1(c2ccc(-c3nn4c(-c5ccc(F)cc5)c(Cl)nc4cc3-c3ccccc3)cc2)CCC1 : 610
NC(=O)/C=C/c1cnc2cc(-c3ccccc3)c(-c3ccc(C4(N)CCC4)cc3)nn12 : 50
C=Cc1cnc2cc(-c3ccccc3)c(-c3ccc(C4(N)CCC4)cc3)nn12 : 30
Cc1nc2cc(-c3ccccc3)c(-c3ccc(C4(N)CCC4)cc3)nn2c1/C=C/C(N)=O : 10000
NC1(c2ccc(-c3nn4c(-c5ccc(CO)cc5)cnc4cc3-c3ccccc3)cc2)CCC1 : 30
NC(=O)c1ccc(-c2cnc3cc(-c4ccccc4)c(-c4ccc(C5(N)CCC5)cc4)nn23)cc1 [Example 4-10, hydrochloride] : 70
NC1(c2ccc(-c3nn4c(Br)cnc4cc3-c3ccccc3)cc2)CCC1 [Example 4-8, hydrochloride] : 110
CCc1c(C)nc2cc(-c3ccccc3)c(-c3ccc(C4(N)CCC4)cc3)nn12 : 10000
NC1(c2ccc(-c3nn4c(-c5cccc(CO)c5)cnc4cc3-c3ccccc3)cc2)CCC1 : 30
N#Cc1cccc(-c2cnc3cc(-c4ccccc4)c(-c4ccc(C5(N)CCC5)cc4)nn23)c1 : 1550
Cc1nc2cc(-c3ccccc3)c(-c3ccc(C4(N)CCC4)cc3)nn2c1-c1cn[nH]c1 : 10000
Cc1nc2cc(-c3ccccc3)c(-c3ccc(C4(N)CCC4)cc3)nn2c1-c1ccn[nH]1 : 4110
NC1(c2ccc(-c3nn4c(-c5ccc(F)c(CO)c5)cnc4cc3-c3ccccc3)cc2)CCC1 [Example 4-9, hydrochloride] : 40
